Data provenance: ChEMBL document CHEMBL1156061

target: Bifunctional epoxide hydrolase 2 (Rattus norvegicus, UniProt P80299); assay: Inhibition of rat sEH
Sequence (P80299 whole entry): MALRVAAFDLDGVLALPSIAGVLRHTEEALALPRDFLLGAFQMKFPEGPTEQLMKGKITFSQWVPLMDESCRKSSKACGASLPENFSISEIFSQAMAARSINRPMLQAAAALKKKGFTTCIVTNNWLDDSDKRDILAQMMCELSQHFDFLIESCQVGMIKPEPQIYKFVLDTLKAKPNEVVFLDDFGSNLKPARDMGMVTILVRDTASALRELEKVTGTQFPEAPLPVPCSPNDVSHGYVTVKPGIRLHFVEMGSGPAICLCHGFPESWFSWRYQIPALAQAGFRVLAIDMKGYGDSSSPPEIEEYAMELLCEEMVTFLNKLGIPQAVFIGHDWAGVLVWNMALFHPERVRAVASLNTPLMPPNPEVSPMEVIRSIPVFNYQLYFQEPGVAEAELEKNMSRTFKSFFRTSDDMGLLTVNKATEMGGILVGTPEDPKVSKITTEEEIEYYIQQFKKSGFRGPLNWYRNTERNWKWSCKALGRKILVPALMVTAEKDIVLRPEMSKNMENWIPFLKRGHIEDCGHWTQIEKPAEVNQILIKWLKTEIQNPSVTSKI
Below, each entry is listed alongside its reported IC50.
Give the value in nM but do not write nM after it.

smiles-data: CS(=O)(=O)c1cc(Cl)ccc1CNC(=O)c1ccc(OCC(F)(F)F)nc1
IC50, nM: 11
//
smiles-data: CNS(=O)(=O)c1ccc(CNC(=O)c2ccc(OCC(F)(F)F)nc2)c(Cl)c1
IC50, nM: 19

Task: What value of IC50 has been reported for the following compound? "O=C(NCCC(c1ccccc1)c1ccccc1)c1ccc(OCC(F)(F)F)nc1"
Output: 7.8

Task: What does the data say about its IC50? Entry: "O=C(NCc1ccc(Cl)cc1Cl)c1ccc(OCC(F)(F)F)nc1"
Output: 7.3

Task: # get_value(readout='IC50', item= "O=C(NCc1ccc(Cl)cc1)c1ccc(OCCC(F)(F)F)nc1" )
Output: 7

Task: Please look up its IC50: "Nc1ccc(C(=O)NCCC(c2ccccc2)c2ccccc2)cn1"
Output: 8.5

* * *

Below, each entry is listed with its recorded half-life.
test: Metabolic stability in human liver microsomes assessed as half life; format: ADME, Microsome
Provide the reading as a plain figure in h.

For orientation, consider the following solved cases.
smiles-data: O=C(NCc1ccc(Cl)cc1Cl)c1ccc(OCC(F)(F)F)nc1
quantity-measured: half-life
result-number: 2.97
--
smiles-data: N#Cc1ccc(CNC(=O)c2ccc(OCC(F)(F)F)nc2)c(Cl)c1
quantity-measured: half-life
result-number: 3.13

Task: Param item = "CS(=O)(=O)c1ccc(CNC(=O)c2ccc(OCCC(F)(F)F)nc2)cc1" ; retrieve measured half-life.
Output: 2.6

Task: Give its half-life value. Item: "CCOCCn1cc(C(=O)NCCC(c2ccccc2)c2ccccc2)ccc1=O"
Output: 0.0667

Task: # half-life lookup, item "O=C(NC1CCOCC1)C1CCN(C(=O)NCc2ccc(Cl)cc2Cl)CC1"
Output: 5

Task: Which half-life value belongs to "O=C(NCCC(c1ccccc1)c1ccccc1)c1ccc(=O)[nH]c1" ?
Output: 1.6

* * *

biological target: Bifunctional epoxide hydrolase 2 (Homo sapiens, UniProt P34913); assay: Inhibition of human soluble EH
quantity-measured: IC50 (µM)
Write down the numeric answer in µM and omit the unit.

Previously resolved entries follow.
smiles-data: O=C(NCc1ccc(Br)cc1OC(F)(F)F)c1ccc(OCC(F)(F)F)nc1
IC50, µM: 0.012
//
smiles-data: O=C(NCc1ccc(Cl)cc1Cl)c1ccc(CCN2CCCC2)nc1
IC50, µM: 1.5
//
smiles-data: CS(=O)(=O)c1ccc(-c2ccc(CNC(=O)c3ccc(OCCC(F)(F)F)nc3)cc2)cc1
IC50, µM: 0.012

Task: Reported IC50, compound "CCOCCn1cc(C(=O)NCc2ccc(Cl)cc2Cl)ccc1=O" : ____
Output: 0.016

* * *

biological target: Bifunctional epoxide hydrolase 2 (Rattus norvegicus, UniProt P80299); assay: Inhibition of rat sEH
Checkbox rule: IC50 lower than 7 nM = Satisfied; IC50 not lower than 7 nM = Not satisfied.

// known answers, use as guide
smiles-data: O=C(NCc1ccccc1OC(F)(F)F)c1ccc(OCC(F)(F)F)nc1
label-value: Satisfied

smiles-data: O=C(NCCC(c1ccccc1)c1ccccc1)c1ccc(=O)[nH]c1
label-value: Not satisfied

smiles-data: CS(=O)(=O)c1ccc(-c2ccc(CNC(=O)c3ccc(OCCC(F)(F)F)nc3)cc2)cc1
label-value: Satisfied

smiles-data: Nc1ccc(C(=O)NCc2ccc(Cl)cc2Cl)cn1
label-value: Not satisfied

Task: Dear colleague, could you confirm whether IC50 of "O=C(NCCC(c1ccccc1)c1ccccc1)c1ccc(CCN2CCCC2)nc1" falls below 7 nM? Thanks.
Output: Not satisfied

Task: Would you kindly verify if IC50 of "CS(=O)(=O)c1ccc(CNC(=O)c2ccc(OCC(F)(F)F)nc2)c(Cl)c1" is strictly less than 7 nM?
Output: Not satisfied

Task: Check if IC50 falls below 7 nM for "CCOCCn1cc(C(=O)NCCC(c2ccccc2)c2ccccc2)ccc1=O" .
Output: Satisfied

Task: Here's an entry: "CS(=O)(=O)c1ccc(CNC(=O)c2ccc(OCCC(F)(F)F)nc2)cc1" . Is its IC50 below 7 nM?
Output: Not satisfied

Task: Lab note: IC50 threshold 7 nM. Does this molecule come in strictly under it? "O=C(NCc1ccc(Cl)cc1Cl)c1ccc(=O)[nH]c1"
Output: Not satisfied

Task: Does "CCOCCn1cc(C(=O)NCc2ccc(Cl)cc2Cl)ccc1=O" have IC50 strictly under 7 nM?
Output: Satisfied

* * *

Biological target: Bifunctional epoxide hydrolase 2 (Homo sapiens, UniProt P34913)
Sequence (P34913 whole entry): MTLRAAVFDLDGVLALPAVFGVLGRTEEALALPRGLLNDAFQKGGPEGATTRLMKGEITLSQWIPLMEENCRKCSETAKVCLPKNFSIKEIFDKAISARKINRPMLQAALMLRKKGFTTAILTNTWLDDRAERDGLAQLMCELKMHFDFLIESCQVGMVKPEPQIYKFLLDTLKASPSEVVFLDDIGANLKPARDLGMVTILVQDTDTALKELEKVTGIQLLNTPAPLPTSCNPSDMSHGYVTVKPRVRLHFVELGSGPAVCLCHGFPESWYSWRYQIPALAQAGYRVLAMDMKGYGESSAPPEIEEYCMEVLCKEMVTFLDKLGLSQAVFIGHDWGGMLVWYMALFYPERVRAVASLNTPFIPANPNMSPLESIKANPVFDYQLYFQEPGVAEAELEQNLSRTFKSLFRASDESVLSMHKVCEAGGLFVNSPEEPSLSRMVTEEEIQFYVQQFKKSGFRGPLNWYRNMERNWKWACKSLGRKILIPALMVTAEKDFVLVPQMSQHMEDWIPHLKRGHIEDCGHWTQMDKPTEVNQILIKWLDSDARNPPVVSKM
Test: Inhibition of soluble EH in human HepG2 cells by cellular assay
Assay type: cell-based
// values below are reported IC50
# number only, unit nM dropped from output

smiles-data: CS(=O)(=O)c1ccc(-c2ccc(CNC(=O)c3ccc(OCCC(F)(F)F)nc3)cc2)cc1
tgt: Bifunctional epoxide hydrolase 2 (Homo sapiens, UniProt P34913)
IC50 (nM): 24

smiles-data: O=C(NCc1ccc(Br)cc1OC(F)(F)F)c1ccc(OCC(F)(F)F)nc1
tgt: Bifunctional epoxide hydrolase 2 (Homo sapiens, UniProt P34913)
IC50 (nM): 0.1

smiles-data: O=C(NCc1ccc(Cl)cc1Cl)c1ccc(OCC(F)(F)F)nc1
tgt: Bifunctional epoxide hydrolase 2 (Homo sapiens, UniProt P34913)
IC50 (nM): 18

smiles-data: CS(=O)(=O)c1ccc(CNC(=O)c2ccc(OCC(F)(F)F)nc2)c(Cl)c1
tgt: Bifunctional epoxide hydrolase 2 (Homo sapiens, UniProt P34913)
IC50 (nM): 28

smiles-data: CNS(=O)(=O)c1ccc(CNC(=O)c2ccc(OCC(F)(F)F)nc2)c(Cl)c1
tgt: Bifunctional epoxide hydrolase 2 (Homo sapiens, UniProt P34913)
IC50 (nM): 31

Now, please, on to the next compound.
Task: Please report the recorded IC50 for "N#Cc1ccc(CNC(=O)c2ccc(OCC(F)(F)F)nc2)c(Cl)c1" .
Output: 12

* * *

Each entry below lists one item and its recorded log10 half-life value.
experiment: Metabolic stability in rat liver microsomes assessed as half life; type: ADME, Microsome
Response schema: value (number) is log10 of half-life in units of min.

Task: Dear colleague, I am looking for the recorded log10 half-life of the following compound: "CNS(=O)(=O)c1ccc(CNC(=O)c2ccc(OCC(F)(F)F)nc2)c(Cl)c1"
Output: 1.40

Task: Look up log10 half-life for this compound: "O=C(NCCC(c1ccccc1)c1ccccc1)c1ccc(CCN2CCCC2)nc1"
Output: 1.61

Task: Look up log10 half-life: "Nc1ccc(C(=O)NCCC(c2ccccc2)c2ccccc2)cn1"
Output: 0.70

* * *

Measured log10 IC50 by item
molecular target: Bifunctional epoxide hydrolase 2 (Homo sapiens, UniProt P34913); assay: Inhibition of human soluble EH
Hey, these are logged values: log10 of IC50, nM being the unit before logging.

Below: 4 compounds and their reported log10 IC50.
smiles-data: O=C(NCCC(c1ccccc1)c1ccccc1)c1ccc(CCN2CCCC2)nc1
log10 IC50: 1.26
--
smiles-data: O=C(NCc1ccc(Cl)cc1Cl)c1ccc(OCC(F)(F)F)nc1
log10 IC50: 0.82
--
smiles-data: O=C(NCCC(c1ccccc1)c1ccccc1)c1ccc(OCC(F)(F)F)nc1
log10 IC50: 0.73
--
smiles-data: CS(=O)(=O)c1ccc(CNC(=O)c2ccc(OCCC(F)(F)F)nc2)cc1
log10 IC50: 2.04

# next compound below
Task: Observed log10 IC50 on Bifunctional epoxide hydrolase 2 (Homo sapiens, UniProt P34913) for "O=C(NCc1ccc(Cl)cc1Cl)c1ccc(=O)[nH]c1" , please.
Output: 2.60

* * *

test: Metabolic stability in human liver microsomes assessed as half life; type: ADME, Microsome
quantity-measured: half-life (h)
Expressed in h, but write only the number.

Check out these entries, answers already filled in.
smiles-data: Nc1ccc(C(=O)NCCC(c2ccccc2)c2ccccc2)cn1
unit-info: h
half-life: 0.55
--
smiles-data: CNS(=O)(=O)c1ccc(CNC(=O)c2ccc(OCC(F)(F)F)nc2)c(Cl)c1
unit-info: h
half-life: 1.35
--
smiles-data: O=C(NCc1ccc(Cl)cc1Cl)c1ccc(=O)[nH]c1
unit-info: h
half-life: 1.3
--
smiles-data: CCOCCn1cc(C(=O)NCc2ccc(Cl)cc2Cl)ccc1=O
unit-info: h
half-life: 0.4
--
smiles-data: Nc1ccc(C(=O)NCc2ccc(Cl)cc2Cl)cn1
unit-info: h
half-life: 0.767

Task: Please report the recorded half-life for "O=C(NCc1ccc(Br)cc1OC(F)(F)F)c1ccc(OCC(F)(F)F)nc1" .
Output: 5

Task: Name the recorded half-life for "O=C(NCCC(c1ccccc1)c1ccccc1)c1ccc(OCC(F)(F)F)nc1" .
Output: 0.633

Task: Item under review: "O=C(NCCC(c1ccccc1)c1ccccc1)c1ccc(CCN2CCCC2)nc1" . Reported half-life?
Output: 0.767

Task: I am curious: what half-life value has been reported for "CS(=O)(=O)c1cc(Cl)ccc1CNC(=O)c1ccc(OCC(F)(F)F)nc1" ?
Output: 5

Task: Bench note: what half-life did "O=C(NCc1ccccc1OC(F)(F)F)c1ccc(OCC(F)(F)F)nc1" show?
Output: 1.3

Task: // half-life lookup, key: "CS(=O)(=O)c1ccc(CNC(=O)c2ccc(OCC(F)(F)F)nc2)c(Cl)c1"
Output: 1.6
